Sourced from the supplement of paper PMC10290057

Test system: HCT116
experiment-notes: AC50 cell viability (CellTiter-Glo); higher = less potent
assay-context: 48 h
Listed next: entries and their corresponding AC50 cell viability.
Answer with a number only, understood to be in nM.

Sample answers from the record:
compound=Cc1cnc(-c2ccccc2C(C)C)nc1NCc1ccc(-n2ccnn2)cc1 tested_system=HCT116 units_symbol=nM reported_measurement=118
compound="NC(=O)C/1=C(O)/[C@]2(O)[C@@H](C[C@@H]\\3CC4=C(C(=CC=C4)O)\\C(=C3C2=O)O)CC1=O [Incyclinide]" tested_system=HCT116 units_symbol=nM reported_measurement=16600
compound=CNCCn1c(=O)c2cc(OC)c(OC)cc2c2cnc3cc4c(cc3c21)OCO4 tested_system=HCT116 units_symbol=nM reported_measurement=30.3
compound=CCN1CCN(C(=O)Cc2ccc(Nc3ncc(F)c(Nc4ccc(C(=O)Nc5ccccc5Cl)cc4)n3)cc2)CC1 tested_system=HCT116 units_symbol=nM reported_measurement=7420
compound=[2H]C([2H])([2H])C(O)([C@@H](C)/C=C/[C@@H](C)[C@H]1CC[C@H]2/C(=C/C=C3C[C@@H](O)C[C@H](O)C3)CCC[C@]12C)C([2H])([2H])[2H] tested_system=HCT116 units_symbol=nM reported_measurement=18600
compound=Cc1cnc(Nc2ccc(CN3CCOCC3)cc2)nc1Nc1cccc([S+](=O)([O-])NC(C)(C)C)c1 tested_system=HCT116 units_symbol=nM reported_measurement=2630

### Prompt Respond only with AC50 cell viability recorded for COC1=C(OCCCN2CCOCC2)C=C3N=CC=C(OC4=CC=C(C=C4F)\C5=C\N=C(\NC6=CC=C(F)C=C6)N(C)C5=O)C3=C1
### Response 16600

### Prompt Provide one value: measured AC50 cell viability of O=C(Nc1ncc(-c2cc(C(F)F)nn2-c2c(Cl)cccc2Cl)s1)C1CC1
### Response 833

###

Test system: HCT116;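 further: HCT116 colorectal carcinoma cells screened at five concentrations per compound, luminescent viability scaled between DMSO wells and empty wells on each plate, curves fitted per compound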
experiment-notes: AC50 cell viability (CellTiter-Glo); higher = less potent
assay-context: 48 h
Rule: AC50 cell viability below 10 µM gives T. Equal to or above 10 µM gives F.

As a guide, the following entries are already answered.
compound=O=C1c2c(O)ccc(O)c2C(=O)c2c(NCCNCCO)ccc(NCCNCCO)c21 tested_system=HCT116 assigned_label=T
compound="COc1cccc2c1CCCC2CCCN1CCN(C2CCCCC2)CC1 (stereo unspecified)" tested_system=HCT116 assigned_label=F
compound=CCN1C(=O)\C(=C/C2=C1N=C(NC3=CC=C(N4CCNCC4)C(=C3)F)N=C2)C5=CC=C(Cl)C=C5Cl tested_system=HCT116 assigned_label=T
compound=COc1cc(N2CCC(N(C)C)CC2)ccc1Nc1ncc(Cl)c(Nc2ccccc2P(C)(C)=O)n1 tested_system=HCT116 assigned_label=T
compound=O=C(O)c1ccc(-n2nc(-c3ccccc3O)nc2-c2ccccc2O)cc1 tested_system=HCT116 assigned_label=F

### Prompt Bench note: check whether Cn1nccc1Nc1nccc(-c2cc3c(s2)C(C)(C)N(CCN2CCOCC2)C3=O)n1 shows AC50 cell viability below 10 µM
### Response T

### Prompt Is AC50 cell viability strictly under 10 µM for the entry ClC1=CC=C(CCCOC/2=N/NC(=O)C(=C2NCC3=CN=CC=C3)/Br)C=C1 ?
### Response F

### Prompt AC50 cell viability under 10 µM? Item: O=C(/C=C/c1cccc([S+](=O)([O-])Nc2ccccc2)c1)NO
### Response T

### Prompt Is AC50 cell viability strictly under 10 µM for the entry NC(=O)Nc1sc(-c2ccc(F)cc2)cc1C(N)=O ?
### Response F
